- assay system: NAD(P)H dehydrogenase [quinone] 1 (Homo sapiens)
- assay protocol: Evaluated for the kinetic parameter (Kcat) using recombinant DT-Diaphorase, value calculated from Lineweaver-Burke plot
k cat: recorded values
result type: k cat (s⁻¹)

structure notation	result type	number
CC1=C(N2CC2)C(=O)c2nc3n(c2C1=O)CC[C@@H]3NC(=O)N(C)C	k cat	3.96
CC1=C(N2CC2)C(=O)c2nc3n(c2C1=O)CC[C@H]3NC(N)=O	k cat	2.7
CC(=O)NC1=C(C)C(=O)c2c(nc3n2CC[C@@H]3OC(C)=O)C1=O	k cat	3.85
CC1=C(N2CC2)C(=O)c2nc3n(c2C1=O)CC[C@H]3NC(=O)N(C)C	k cat	9.56
CC1=C(N2CC2)C(=O)c2nc3n(c2C1=O)CCC[C@H]3N	k cat	4.92
CC(=O)N[C@H]1CCn2c1nc1c2C(=O)C(C)=C(N2CC2)C1=O	k cat	1.87
CC1=C(N2CC2)C(=O)c2nc3n(c2C1=O)CC[C@@H]3NC(N)=O	k cat	2.4
CC1=C(N2CC2)C(=O)c2nc3n(c2C1=O)CCC[C@@H]3N	k cat	2.97
O=C1c2nc3n(c2C(=O)c2c1nc1n2CCCC1)CCCC3	k cat	3.74
CC1=C(N2CC2)C(=O)c2nc3n(c2C1=O)CC[C@H]3N	k cat	3.26
CC1=C(N2CC2)C(=O)c2nc3n(c2C1=O)CC[C@@H]3N	k cat	2.64

----------
List of k cat/Km values.
- assay system: NAD(P)H dehydrogenase [quinone] 1 (Homo sapiens)
- assay protocol: The ratio Kcat/Km provides the apparent second-order rate constant of the enzymatic transformation DT-Diaphorase
result type: k cat/Km

structure notation	result
CC1=C(N2CC2)C(=O)c2nc3n(c2C1=O)CC[C@@H]3NC(N)=O	1.2e+06 M⁻¹ s⁻¹
COCC(=O)O[C@@H]1CCn2c1nc1c2C(=O)C(C)=C(NC(C)=O)C1=O	40000 M⁻¹ s⁻¹
O=C1c2nc3n(c2C(=O)c2c1nc1n2CCC1)CCC3	118000 M⁻¹ s⁻¹
CC(=O)N[C@@H]1CCn2c1nc1c2C(=O)C(C)=C(N2CC2)C1=O	920000 M⁻¹ s⁻¹
CC1=C(N2CC2)C(=O)c2nc3n(c2C1=O)CCC[C@@H]3N	188000 M⁻¹ s⁻¹

----------
- assay system: NAD(P)H dehydrogenase [quinone] 1 (Homo sapiens) (UniProt P15559)
- Sequence (P15559 whole entry): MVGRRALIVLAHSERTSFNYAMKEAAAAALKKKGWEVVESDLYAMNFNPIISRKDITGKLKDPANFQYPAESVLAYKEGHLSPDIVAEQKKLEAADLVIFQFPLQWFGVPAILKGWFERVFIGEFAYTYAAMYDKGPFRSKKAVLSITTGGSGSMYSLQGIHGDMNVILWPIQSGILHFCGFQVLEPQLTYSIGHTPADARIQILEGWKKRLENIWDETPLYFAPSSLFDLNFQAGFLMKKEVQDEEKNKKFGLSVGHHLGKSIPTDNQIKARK
- assay protocol: Ratio Kcat/Km provides the apparent second-order rate constant of the enzymatic transformation of DT-Diaphorase

structure notation	k cat/Km, M⁻¹ s⁻¹
CC1=C(N2CC2)C(=O)c2nc3n(c2C1=O)CCC[C@H]3N	106000
CC1=C(N2CC2)C(=O)c2nc3n(c2C1=O)CC[C@@H]3N	1.39e+06
CC(=O)N[C@H]1CCn2c1nc1c2C(=O)C(C)=C(N2CC2)C1=O	520000
CC1=C(N2CC2)C(=O)c2nc3n(c2C1=O)CC[C@H]3NC(N)=O	890000
CC(=O)NC1=C(C)C(=O)c2c(nc3n2CC[C@@H]3OC(C)=O)C1=O	472000
CC1=C(N2CC2)C(=O)c2nc3n(c2C1=O)CC[C@@H]3NC(=O)N(C)C	940000
O=C1c2nc3n(c2C(=O)c2c1nc1n2CCCC1)CCCC3	1.45e+06
CC(=O)NC1=C(C)C(=O)c2c(nc3n2CC[C@H]3OC(C)=O)C1=O	154000
COCC(=O)O[C@H]1CCn2c1nc1c2C(=O)C(C)=C(NC(C)=O)C1=O	69000
CC1=C(N2CC2)C(=O)c2nc3n(c2C1=O)CC[C@H]3NC(=O)N(C)C	2.13e+06
CC1=C(N2CC2)C(=O)c2nc3n(c2C1=O)CC[C@H]3N	640000

Attribution: ChEMBL document CHEMBL1135883
